# tested_system: Peptidyl-prolyl cis-trans isomerase FKBP1A (Homo sapiens, UniProt P62942)
# Sequence (P62942 whole entry): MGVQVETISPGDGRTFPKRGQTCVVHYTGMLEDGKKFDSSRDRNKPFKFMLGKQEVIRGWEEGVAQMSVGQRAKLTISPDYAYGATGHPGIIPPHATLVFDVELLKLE
# procedure_text: Effective concentration against FK506 binding protein 12 using [3H]-dihydro FK-506
value_type: pEC50
Please treat pEC50 as minus the base-10 logarithm of the molar concentration.

Look over these answered cases.
compound	tested_system	pEC50
CC[C@@H]1/C=C(\C)C[C@H](C)C[C@H](OC)[C@H]2O[C@@](O)(C(=O)C(=O)N3CCCC[C@H]3C(=O)O[C@H](/C(C)=C/C3CC[C@@H](OC[C@@H](O)c4cccc(C(F)(F)F)c4)[C@H](OC)C3)[C@H](C)[C@H](O)CC1=O)[C@H](C)C[C@@H]2OC (stereo partly specified)	Peptidyl-prolyl cis-trans isomerase FKBP1A (Homo sapiens, UniProt P62942)	7.35
CC[C@@H]1/C=C(\C)C[C@H](C)C[C@H](OC)[C@H]2O[C@@](O)(C(=O)C(=O)N3CCCC[C@H]3C(=O)O[C@H](/C(C)=C/C3CC[C@@H](OC[C@H](O)c4cc(C)cc(C)c4)[C@H](OC)C3)[C@H](C)[C@H](O)CC1=O)[C@H](C)C[C@@H]2OC (stereo partly specified)	Peptidyl-prolyl cis-trans isomerase FKBP1A (Homo sapiens, UniProt P62942)	8.05
CC[C@@H]1/C=C(\C)C[C@H](C)C[C@H](OC)[C@H]2O[C@@](O)(C(=O)C(=O)N3CCCC[C@H]3C(=O)O[C@H](/C(C)=C/C3CC[C@@H](OC[C@@H](O)c4cc5ccccc5s4)[C@H](OC)C3)[C@H](C)[C@H](O)CC1=O)[C@H](C)C[C@@H]2OC (stereo partly specified)	Peptidyl-prolyl cis-trans isomerase FKBP1A (Homo sapiens, UniProt P62942)	7.95
CC[C@@H]1/C=C(\C)C[C@H](C)C[C@H](OC)[C@H]2O[C@@](O)(C(=O)C(=O)N3CCCC[C@H]3C(=O)O[C@H](/C(C)=C/C3CC[C@@H](OC[C@H](O)c4cc5ccccc5s4)[C@H](OC)C3)[C@H](C)[C@H](O)CC1=O)[C@H](C)C[C@@H]2OC (stereo partly specified)	Peptidyl-prolyl cis-trans isomerase FKBP1A (Homo sapiens, UniProt P62942)	7.92
CC[C@@H]1/C=C(\C)C[C@H](C)C[C@H](OC)[C@H]2O[C@@](O)(C(=O)C(=O)N3CCCC[C@H]3C(=O)O[C@H](/C(C)=C/C3CC[C@@H](OC[C@@H](O)c4ccc(F)c(F)c4)[C@H](OC)C3)[C@H](C)[C@H](O)CC1=O)[C@H](C)C[C@@H]2OC (stereo partly specified)	Peptidyl-prolyl cis-trans isomerase FKBP1A (Homo sapiens, UniProt P62942)	8.12

Continue with the next compound.
Requested field: pEC50. Item: CC[C@@H]1/C=C(\C)C[C@H](C)C[C@H](OC)[C@H]2O[C@@](O)(C(=O)C(=O)N3CCCC[C@H]3C(=O)O[C@H](/C(C)=C/C3CC[C@@H](OC[C@H](O)c4cccc(C(F)(F)F)c4)[C@H](OC)C3)[C@H](C)[C@H](O)CC1=O)[C@H](C)C[C@@H]2OC (stereo partly specified)
7.35

* * *

# Test system: Mus musculus
# procedure_text: In vivo immunosuppression in murine models by splenic T-cell proliferation assay after peroral administration
# Assay type: functional
# condition_notes: po
value_type: ED50 (mg/kg)
Report only the number, with the unit mg/kg understood.

Check out these entries, answers already filled in.
molecule	ED50 [mg/kg]
CC[C@@H]1/C=C(\C)C[C@H](C)C[C@H](OC)[C@H]2O[C@@](O)(C(=O)C(=O)N3CCCC[C@H]3C(=O)O[C@H](/C(C)=C/C3CC[C@@H](OC[C@@H](O)c4cccc(C(F)(F)F)c4)[C@H](OC)C3)[C@H](C)[C@H](O)CC1=O)[C@H](C)C[C@@H]2OC (some centres undefined)	3.7
C=CC[C@@H]1/C=C(\C)C[C@H](C)C[C@H](OC)[C@H]2O[C@@](O)(C(=O)C(=O)N3CCCC[C@H]3C(=O)O[C@H](/C(C)=C/[C@@H]3CC[C@@H](O)[C@H](OC)C3)[C@H](C)C(O)CC1=O)[C@H](C)C[C@@H]2OC (single isomer, unassigned) [TACROLIMUS ANHYDROUS]	2.6
CC[C@@H]1/C=C(\C)C[C@H](C)C[C@H](OC)[C@H]2O[C@@](O)(C(=O)C(=O)N3CCCC[C@H]3C(=O)O[C@H](/C(C)=C/C3CC[C@@H](OC[C@@H](O)c4ccc5ccccc5c4)[C@H](OC)C3)[C@H](C)[C@H](O)CC1=O)[C@H](C)C[C@@H]2OC (some centres undefined)	3.7

Turning to the following molecule.
Return reported ED50; argument: CC[C@@H]1/C=C(\C)C[C@H](C)C[C@H](OC)[C@H]2O[C@@](O)(C(=O)C(=O)N3CCCC[C@H]3C(=O)O[C@H](/C(C)=C/C3CC[C@@H](OC[C@H](O)c4cc5ccccc5s4)[C@H](OC)C3)[C@H](C)[C@H](O)CC1=O)[C@H](C)C[C@@H]2OC (some centres undefined)
5.6
